Overview of recorded EC50 for various compounds
Tested on: DLD-1 BRCA2(−/−) cells
assay-remarks: Cell growth inhibition assay (CellTiter-Glo), DLD-1 BRCA2(−/−)
Assay type: cell-based
conditions-used: Homo sapiens, DLD-1, 168 h; 200 cells/well, 7 days, CellTiter Glo 2.0; read-out: DLD-1 BRCA2(−/−) pEC50 (converted)
reported-metric: EC50 (nM)

>>> quantitative_readout("CCc1cc2ncc(CN3CCN(c4ccc(C#N)c(F)c4)CC3)cc2[nH]c1=O [Example 38]")
0.631
>>> quantitative_readout("Cc1nc2c(F)cc(CN3CCN(c4ccc(C#N)cn4)CC3)cc2[nH]c1=O [Example 49]")
10
>>> quantitative_readout("Cc1cc2ncc(CN3CCN(c4cc(F)c(C#N)cc4F)CC3)cc2[nH]c1=O [Example 13]")
5.01
>>> quantitative_readout("Cc1nc2ccc(CN3CCN(c4ccc(C#N)nc4Cl)CC3)c(F)c2[nH]c1=O [Example 73]")
20
>>> quantitative_readout("CCc1cc2ncc(CN3CCN(c4ccc(F)cn4)CC3)cc2[nH]c1=O [Example 4]")
2
>>> quantitative_readout("N#Cc1ccc(N2CCN(Cc3cnc4cc(Br)c(=O)[nH]c4c3)CC2)nc1 [Example 60]")
1.58
>>> quantitative_readout("N#Cc1ccc(N2CCN(Cc3cnc4cc(C(F)F)c(=O)[nH]c4c3)CC2)cc1 [Example 59]")
1.26
>>> quantitative_readout("Cc1nc2ccc(CN3CCN(c4ccc(C#N)cn4)CC3)cc2[nH]c1=O [Example 84]")
6.31
>>> quantitative_readout("N#Cc1ccc(N2CCN(Cc3ccc4cc(Cl)c(=O)[nH]c4c3F)CC2)nc1 [Example 83]")
10

====

Reported IC50 values are given for each entry in this list.
target: PARP1 (Homo sapiens, UniProt P09874)
Construct: made in house
Sequence (P09874 whole entry): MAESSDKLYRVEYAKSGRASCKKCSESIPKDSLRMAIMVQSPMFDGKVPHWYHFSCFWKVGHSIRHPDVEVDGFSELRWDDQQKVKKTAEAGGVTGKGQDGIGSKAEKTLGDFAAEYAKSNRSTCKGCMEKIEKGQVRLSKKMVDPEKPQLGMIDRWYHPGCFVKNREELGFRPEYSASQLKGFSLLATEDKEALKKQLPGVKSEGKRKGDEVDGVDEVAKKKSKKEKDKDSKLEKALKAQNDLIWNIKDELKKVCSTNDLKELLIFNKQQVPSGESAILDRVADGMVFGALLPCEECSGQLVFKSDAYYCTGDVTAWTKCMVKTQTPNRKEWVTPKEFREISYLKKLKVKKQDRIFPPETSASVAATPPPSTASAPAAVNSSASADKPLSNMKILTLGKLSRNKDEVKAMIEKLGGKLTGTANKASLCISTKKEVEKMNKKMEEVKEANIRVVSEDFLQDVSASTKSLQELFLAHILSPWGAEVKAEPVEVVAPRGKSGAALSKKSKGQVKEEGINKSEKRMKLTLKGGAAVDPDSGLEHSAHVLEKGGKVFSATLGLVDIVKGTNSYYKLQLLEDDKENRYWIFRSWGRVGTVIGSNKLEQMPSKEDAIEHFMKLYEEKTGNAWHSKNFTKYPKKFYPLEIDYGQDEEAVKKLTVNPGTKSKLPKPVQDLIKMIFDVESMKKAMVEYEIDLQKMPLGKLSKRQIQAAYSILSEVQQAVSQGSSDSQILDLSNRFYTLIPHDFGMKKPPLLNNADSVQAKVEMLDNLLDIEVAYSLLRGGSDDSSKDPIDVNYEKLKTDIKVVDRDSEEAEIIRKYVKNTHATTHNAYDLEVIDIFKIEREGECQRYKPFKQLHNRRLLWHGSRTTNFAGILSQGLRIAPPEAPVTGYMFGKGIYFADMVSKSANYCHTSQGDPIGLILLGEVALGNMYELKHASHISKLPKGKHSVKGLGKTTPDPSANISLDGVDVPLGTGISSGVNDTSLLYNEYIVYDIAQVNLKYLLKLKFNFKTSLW
assay-remarks: Biochemical fluorescent polarization (FP) assay, displacement of PARPi-FL, PARP1
Format: binding
conditions-used: 20 nM protein, 3 nM PARPi-FL, 4 h at room temperature; read-out: FP PARP1 pIC50 (converted)
reported-metric: IC50 (nM)

>>> quantitative_readout("Cc1cc2ncc(CN3CCN(c4ccc(C#N)cn4)CC3)cc2[nH]c1=O")
5.01
>>> quantitative_readout("N#Cc1ccc(N2CCN(Cc3cnc4cc(Br)c(=O)[nH]c4c3)CC2)nc1")
6.31
>>> quantitative_readout("Cc1cc2ncc(CN3CCN(c4ccc(C#N)cn4)[C@H]4C[C@H]43)cc2[nH]c1=O (single isomer, unassigned)")
6.31

====

target: PARP1 (Homo sapiens)
Construct: made in house
assay-remarks: Biochemical fluorescent polarization (FP) assay, displacement of PARPi-FL, PARP1
Type: binding
conditions-used: 20 nM protein, 3 nM PARPi-FL, 4 h at room temperature; read-out: FP PARP1 pIC50 (converted)
// NB: equality with 6 nM counts as Condition not met; only IC50 strictly below is Condition met

>>> assigned_label("CCc1cc2ncc(CN3CCN(c4ccc(C#N)cn4)CC3)cc2[nH]c1=O")
"Condition met"
>>> assigned_label("Cc1nc2ccc(CN3CCN(c4ccc(C#N)nc4F)CC3)c(F)c2[nH]c1=O")
"Condition not met"
>>> assigned_label("Cc1nc2ccc(CN3CCN(c4ccc(C#N)nc4Cl)CC3)c(F)c2[nH]c1=O")
"Condition not met"
>>> assigned_label("CCc1cc2ncc(CN3CCN(c4ccc(C#N)cc4OC)CC3)cc2[nH]c1=O")
"Condition not met"
>>> assigned_label("N#Cc1ccc(N2CCN(Cc3cnc4cc(C5CC5)c(=O)[nH]c4c3)[C@H]3C[C@H]32)nc1 (single isomer, unassigned)")
"Condition met"
>>> assigned_label("N#Cc1ccc(N2CCN(Cc3cnc4cc(C5CC5)c(=O)[nH]c4c3)CC2)c(F)c1")
"Condition not met"
>>> assigned_label("Cc1cc2ccc(CN3CCN(c4ccc(C#N)cn4)CC3)c(F)c2[nH]c1=O")
"Condition not met"
>>> assigned_label("N#Cc1ccc(N2CCN(Cc3cnc4cc(C(F)F)c(=O)[nH]c4c3)CC2)nc1")
"Condition met"
>>> assigned_label("N#Cc1ccc(N2CCN(Cc3cnc4cc(C(F)F)c(=O)[nH]c4c3)CC2)cc1")
"Condition not met"
>>> assigned_label("CCc1cc2ncc(CN3CCN(c4ncc(F)cc4C#N)CC3)cc2[nH]c1=O")
"Condition not met"
>>> assigned_label("Cc1cc2c(F)cc(CN3CCN(c4ccc(C#N)cn4)CC3)cc2[nH]c1=O")
"Condition not met"
>>> assigned_label("Cc1cc2ncc(CN3CCN(c4ncc(F)cc4F)CC3)cc2[nH]c1=O")
"Condition not met"
>>> assigned_label("Cc1cc2ncc([C@H](C)N3CCN(c4ccc(C#N)cn4)[C@H](C)C3)cc2[nH]c1=O (single isomer, unassigned)")
"Condition not met"
>>> assigned_label("Cc1c(C(F)F)c2ncc(CN3CCN(c4ccc(C#N)cn4)CC3)cc2[nH]c1=O")
"Condition not met"
>>> assigned_label("Cc1cc2ncc(CN3CCN(c4ncc(C#N)cc4F)CC3)cc2[nH]c1=O")
"Condition not met"
>>> assigned_label("CCc1cc2ncc(CN3CCN(c4ccc(C#N)c(F)c4)CC3)cc2[nH]c1=O")
"Condition met"
>>> assigned_label("Cc1c(Cl)c(=O)[nH]c2cc(CN3CCN(c4ccc(C#N)cn4)CC3)cnc12")
"Condition met"
